# PROTOCOL: VP16 transactivation reporter inhibitors, counter-screen for LRH-1 inverse agonist project, cell-based, luminescence, high throughput (AID 651615)
# STUDY CONDITIONS: Gal4-VP16 luciferase reporter cells, at 3.6 µM, active compounds read high
The source made the active and inactive calls. No stated cut-off is given here; in the data, active means inhibition above about 33%; inactive means the rest.
Assignment: determine reported inhibition for the given compounds.

Report inhibition for COc1ccc(CCNC(=O)COC(=O)C2CC2C)cc1 (stereo not given) please.
2.63% (inactive)

Next compound: `Cc1ccc(C)c(NC(=O)CSc2nnc(CCNC(=O)OC(C)(C)C)o2)c1`
-2.78% (inactive)

Next compound: `O=C(Cn1ccc(=O)[nH]c1=O)c1ccc([N+](=O)[O-])o1`
-16.8% (inactive)

Next compound: `COC(=O)c1ccc(NC(=O)CSc2ccc(-c3ccccn3)nn2)cc1`
-18% (inactive)

Next compound: `CCN(CC)CCn1nc2c3c(cccc3c1=O)-c1ccccc1-2`
79.5% (active)

Next compound: `COc1ccc(NC(=O)COC(=O)CNC(=O)c2cc(OC)c(OC)c(OC)c2)cc1`
-7.21% (inactive)

Next compound: `CC(=NNC(=S)N1CCN(C2CCCCCC2)CC1)c1ccccn1`
65.2% (active)

Next compound: `Cc1[nH][nH]c(=O)c1N=Nc1ccc(S(N)(=O)=O)cc1`
6.39% (inactive)

Next compound: `Cc1ccc(Nc2nc(-c3cccnc3)nc3ccccc23)cc1`
14% (inactive)

Next compound: `Cc1c(C)c2ccc(OCC(=O)Nc3ccccn3)c(C)c2oc1=O`
69.7% (active)

Next compound: `O=C(Nc1ccc(C(=O)N2CCOCC2)cc1)c1cccc([N+](=O)[O-])c1`
-0.69% (inactive)

Next compound: `Cc1c(NC(=O)c2ccc([N+](=O)[O-])o2)cccc1-c1nc2ncccc2o1`
-13.2% (inactive)

Next compound: COc1ccc(OC)c(C2NC(=O)c3sc(=S)n(-c4ccccc4)c3N2)c1 (stereo not given)
-4.35% (inactive)

Next compound: `COc1ccc(OC)c(C2=NS(=O)(=O)N(C)C(C(=O)Nc3ccc(C(C)=O)cc3)=C2)c1`
-9.42% (inactive)

Next compound: `COc1cc(NC(=O)c2ccc([N+](=O)[O-])o2)ccc1NC(=O)c1ccco1`
-17.9% (inactive)

Next compound: `O=C(CSCC(=O)Nc1ccccc1)N/N=C/c1c(O)ccc2ccccc12`
82.9% (active)

Next compound: `CN1CCN(c2nc(-c3ccccc3O)nc3ccccc23)CC1`
39.5% (active)

Next compound: `COc1ccc2c(c1)-c1c(ssc1=S)C(C)(C)N2`
67.9% (active)

Next compound: `NC(=O)CC[C@H](NC(=O)c1ccc(F)cc1)C(=O)OCC(=O)Nc1ccc(N2CCOCC2)cc1`
-8.19% (inactive)

Next compound: Cc1c(NC(=O)C(C)OC(=O)c2ccc([N+](=O)[O-])s2)c(=O)n(-c2ccccc2)n1C (stereo not given)
-10.5% (inactive)

Next compound: CCOc1cc2c(cc1OCC)C(c1ccc(OC)cc1)N(c1ccccc1)C(=O)C2 (stereo not given)
-4.52% (inactive)

Next compound: `CCn1c(=NC(=O)CCS(=O)(=O)c2ccccc2)sc2cccc(OC)c21`
69.2% (active)

Next compound: `Cc1ccc(NC(=O)CSc2ccc3c(c2)OCCO3)c(O)c1`
35.5% (active)

Next compound: `CCCn1c(C)cc(C(=O)CN2C(=O)c3ccccc3S2(=O)=O)c1C`
51.2% (active)

Next compound: `O=C(COC(=O)Cn1[nH]c(=O)c2ccccc2c1=O)NNC(=O)c1ccc(Br)cc1`
-7.59% (inactive)

Next compound: `Cc1ncc(CO)c(/C=N/NC(=O)c2cc3c(s2)CCCC3)c1O`
82.6% (active)

Next compound: `CCc1nc(SCC(=O)c2ccccc2)c2ccccc2n1`
-18.1% (inactive)

Next compound: `COc1ccc(CCNC(=O)CSc2nc3[nH]ncc3c(=O)n2-c2ccccc2Br)cc1OC`
-2.5% (inactive)

Next compound: `COc1ccc(CCNC(=O)COC(=O)C23CC4CC(CC(C4)C2)C3)cc1`
1.82% (inactive)

Next compound: `CCN(CC)CC(=O)Nc1ccc(-c2nc3cc(NC(=O)CN(CC)CC)ccc3o2)cc1`
-0.95% (inactive)

Next compound: `COc1ccc(C=C2CS(=O)(=O)CC(=Cc3ccc(OC)cc3)C2=O)cc1`
80.1% (active)

Next compound: `O=C(CSc1nnc(CNC(=O)c2ccccc2F)o1)Nc1ccc2c(c1)OCCO2`
-7.98% (inactive)

Next compound: `COc1cccc(-c2cnc3c(NC(C)=O)cc(-c4ccc(S(C)(=O)=O)cc4)cn23)c1`
-13.3% (inactive)

Next compound: `Cc1ccc(-c2nc3ncccc3o2)cc1NC(=O)c1ccc([N+](=O)[O-])o1`
-15.3% (inactive)

Next compound: `Cc1cc(O)c(/C=N/Nc2cccc(Cl)c2)c(=O)o1`
56% (active)
